test system: ATP; test: switch fluorescence ratio, 500 uM ATP over buffer (Cy3 cluster intensity, sum of 5 cycles each) (fold (ratio)); higher = stronger signal-on switching upon ATP binding; sequences stand for … in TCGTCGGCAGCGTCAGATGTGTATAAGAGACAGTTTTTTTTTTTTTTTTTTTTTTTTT…TC; settings: aptamer strand: ATP DNA aptamer (quencher-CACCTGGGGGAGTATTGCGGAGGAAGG + anchor), 100 nM annealed; ATP concentration: 500 uM;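 further: ATP exposure 15 min at 22 °C before imaging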
# switch fluorescence ratio per entry

{"Entry sequence": "TTCATCAGCG", "switch fluorescence ratio": 1.05}
{"Entry sequence": "ATGACTTACG", "switch fluorescence ratio": 1.08}
{"Entry sequence": "GAGGAAGGAA", "switch fluorescence ratio": 1.04}
{"Entry sequence": "ACTGATTTAT", "switch fluorescence ratio": 1.01}
{"Entry sequence": "GTTCTAAGTA", "switch fluorescence ratio": 0.957}
{"Entry sequence": "GGGGGGGCGG", "switch fluorescence ratio": 1}
{"Entry sequence": "TAACCTGGAG", "switch fluorescence ratio": 1.18}
{"Entry sequence": "GGGACGGCGG", "switch fluorescence ratio": 1}
{"Entry sequence": "TTGAACGAGA", "switch fluorescence ratio": 0.998}
{"Entry sequence": "ATTTTTCCCG", "switch fluorescence ratio": 1.07}
{"Entry sequence": "CGGCCATTTG", "switch fluorescence ratio": 0.993}
{"Entry sequence": "CCATTGCACG", "switch fluorescence ratio": 1.16}
{"Entry sequence": "CAACTTGGGA", "switch fluorescence ratio": 1.05}
{"Entry sequence": "AAATTGGTTT", "switch fluorescence ratio": 0.995}
{"Entry sequence": "TCTGGTTTTT", "switch fluorescence ratio": 1.01}
{"Entry sequence": "GGGAGGAATG", "switch fluorescence ratio": 0.989}
{"Entry sequence": "AGAAGGCTAG", "switch fluorescence ratio": 1.02}
{"Entry sequence": "ACATGGAGAG", "switch fluorescence ratio": 0.985}
{"Entry sequence": "TTTTTGACC", "switch fluorescence ratio": 1.01}
{"Entry sequence": "TTTCCTTGTG", "switch fluorescence ratio": 1.36}
{"Entry sequence": "AAAAGATAGC", "switch fluorescence ratio": 0.989}
{"Entry sequence": "CCCGGGGTAC", "switch fluorescence ratio": 2.97}
{"Entry sequence": "TTTTACCTAT", "switch fluorescence ratio": 1.04}
{"Entry sequence": "TTTCTCTGTT", "switch fluorescence ratio": 1.02}
{"Entry sequence": "ATTCGTCATA", "switch fluorescence ratio": 1.04}
{"Entry sequence": "CTGGCTACTA", "switch fluorescence ratio": 1.03}

----------
test system: ATP; test: switch fluorescence ratio, 500 uM ATP over buffer (Cy3 cluster intensity, sum of 5 cycles each) (fold (ratio)); higher = stronger signal-on switching upon ATP binding; sequences stand for … in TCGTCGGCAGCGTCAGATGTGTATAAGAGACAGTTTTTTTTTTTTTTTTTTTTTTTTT…TC; conditions: aptamer strand: ATP DNA aptamer (quencher-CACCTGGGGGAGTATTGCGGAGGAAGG + anchor), 100 nM annealed; ATP concentration: 500 uM;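 further: ATP exposure 15 min at 22 °C before imaging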
Recorded metric: switch fluorescence ratio

{"Entry sequence": "CAGGCATAAG", "Recorded metric": "switch fluorescence ratio", "Result": 0.98}
{"Entry sequence": "GGCGAAAACT", "Recorded metric": "switch fluorescence ratio", "Result": 1.07}
{"Entry sequence": "TTTTGAACGA", "Recorded metric": "switch fluorescence ratio", "Result": 1.01}
{"Entry sequence": "CGAGTCAGTT", "Recorded metric": "switch fluorescence ratio", "Result": 0.992}
{"Entry sequence": "ACGGCTGCGT", "Recorded metric": "switch fluorescence ratio", "Result": 1.05}
{"Entry sequence": "TCGGCAATGT", "Recorded metric": "switch fluorescence ratio", "Result": 2.32}
{"Entry sequence": "TTTCTTGCAC", "Recorded metric": "switch fluorescence ratio", "Result": 1.07}
{"Entry sequence": "ATTGGTGGGG", "Recorded metric": "switch fluorescence ratio", "Result": 0.982}
{"Entry sequence": "TTAATGCAAC", "Recorded metric": "switch fluorescence ratio", "Result": 1.01}
{"Entry sequence": "TTCGTTTCGT", "Recorded metric": "switch fluorescence ratio", "Result": 0.995}
{"Entry sequence": "GATTTTGACG", "Recorded metric": "switch fluorescence ratio", "Result": 1.04}
{"Entry sequence": "ATATTCTTGT", "Recorded metric": "switch fluorescence ratio", "Result": 1.01}
{"Entry sequence": "TTATGGTGGG", "Recorded metric": "switch fluorescence ratio", "Result": 0.981}
{"Entry sequence": "TAATCTTTTT", "Recorded metric": "switch fluorescence ratio", "Result": 1.01}
{"Entry sequence": "TATCATGAG", "Recorded metric": "switch fluorescence ratio", "Result": 1}
{"Entry sequence": "TACCAGCATT", "Recorded metric": "switch fluorescence ratio", "Result": 1.1}

----------
tested on: ATP; assay: switch fluorescence ratio, 500 uM ATP over buffer (Cy3 cluster intensity, sum of 5 cycles each) (fold (ratio)); higher = stronger signal-on switching upon ATP binding; sequences stand for … in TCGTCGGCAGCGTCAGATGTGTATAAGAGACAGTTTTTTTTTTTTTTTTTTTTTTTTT…TC; conditions: aptamer strand: ATP DNA aptamer (quencher-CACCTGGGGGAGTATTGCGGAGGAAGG + anchor), 100 nM annealed; ATP concentration: 500 uM;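 further: ATP exposure 15 min at 22 °C before imaging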
Outcome: satisfied for switch fluorescence ratio of at least 1; not satisfied for anything lower.

{"Entry sequence": "CACAAAATAG", "Category label": "satisfied"}
{"Entry sequence": "ATGAAATAGT", "Category label": "not satisfied"}
{"Entry sequence": "AACCAGCACC", "Category label": "satisfied"}
{"Entry sequence": "TAAATGAAGG", "Category label": "satisfied"}
{"Entry sequence": "GTGTGACTCG", "Category label": "satisfied"}

----------
test system: ATP; assay: switch fluorescence ratio, 500 uM ATP over buffer (Cy3 cluster intensity, sum of 5 cycles each) (fold (ratio)); higher = stronger signal-on switching upon ATP binding; sequences stand for … in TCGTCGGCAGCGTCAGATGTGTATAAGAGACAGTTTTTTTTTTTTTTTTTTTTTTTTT…TC; details: aptamer strand: ATP DNA aptamer (quencher-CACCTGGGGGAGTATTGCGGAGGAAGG + anchor), 100 nM annealed; ATP concentration: 500 uM;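 further: ATP exposure 15 min at 22 °C before imaging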
# switch fluorescence ratio per entry

{"Entry sequence": "TGCATGGGGG", "switch fluorescence ratio": 0.999}
{"Entry sequence": "CAAGGACGTT", "switch fluorescence ratio": 0.997}
{"Entry sequence": "CGGTTAAAAT", "switch fluorescence ratio": 0.989}
{"Entry sequence": "CGTATAATTT", "switch fluorescence ratio": 0.976}
{"Entry sequence": "GTGAAGGGTT", "switch fluorescence ratio": 0.993}
{"Entry sequence": "GCAGGGGCTG", "switch fluorescence ratio": 1.02}
{"Entry sequence": "CTGGGGATCG", "switch fluorescence ratio": 1.02}
{"Entry sequence": "TGGGTTAATG", "switch fluorescence ratio": 0.991}
{"Entry sequence": "GATGTAGGTG", "switch fluorescence ratio": 1.01}
{"Entry sequence": "CCATTTCTTG", "switch fluorescence ratio": 0.991}
{"Entry sequence": "AATTTCATGT", "switch fluorescence ratio": 1.01}
{"Entry sequence": "GGGCTGGGTC", "switch fluorescence ratio": 0.98}
{"Entry sequence": "ATTCGTTTTC", "switch fluorescence ratio": 1.02}
{"Entry sequence": "TATGTTCCAA", "switch fluorescence ratio": 1.01}
{"Entry sequence": "GTTTTATTAT", "switch fluorescence ratio": 1.02}
{"Entry sequence": "TTTTGAATGG", "switch fluorescence ratio": 1.02}
{"Entry sequence": "ATATGCTGTA", "switch fluorescence ratio": 0.989}
{"Entry sequence": "ATTTTCGGTG", "switch fluorescence ratio": 1.01}
{"Entry sequence": "AGGGGGTAGT", "switch fluorescence ratio": 0.983}
{"Entry sequence": "TTAATCATAG", "switch fluorescence ratio": 1}
{"Entry sequence": "GTGGGGTGTT", "switch fluorescence ratio": 0.985}
{"Entry sequence": "TGAGGCCCCG", "switch fluorescence ratio": 0.991}
{"Entry sequence": "ACTCAGGAGT", "switch fluorescence ratio": 1.01}
{"Entry sequence": "ATGAGCGACG", "switch fluorescence ratio": 0.992}
{"Entry sequence": "TGATAGAGTG", "switch fluorescence ratio": 1.01}
{"Entry sequence": "TTGTAGCCGT", "switch fluorescence ratio": 0.983}
{"Entry sequence": "CGGGTAGTTA", "switch fluorescence ratio": 0.99}
{"Entry sequence": "TGGGCAGAGG", "switch fluorescence ratio": 1.01}
{"Entry sequence": "ATGTGTGGGC", "switch fluorescence ratio": 1.01}
